Experiment: qHTS Assay for Inhibitors of Fructose-1,6-bisphosphate Aldolase from Giardia Lamblia: Coupling assay counterscreen; also: % is scaled to controls: 0 for no effect and ±100 for the full control effect
Settings: coupling enzyme system counterscreen, AmpLite Red fluorescence; at 58.2 µM (top of the series)
About 2,000 (0.69%) of roughly 290,000 compounds were called active. Rule as the data show it: active = activity change below about -30%; inactive = the rest, inconclusive results apart. Shown is part of a subset that was picked to be rich in actives.
Possible outcomes: yes (1) = active, no (0) = inactive

{"Molecule": "COc1ccc(N2CCN(C(C)=C3C(=O)c4ccccc4C3=O)CC2)cc1", "Category Label": "no (0)"}
{"Molecule": "CCOC(=O)c1ccccc1NC(=O)COC(=O)CCC(=O)N1CCOCC1", "Category Label": "no (0)"}
{"Molecule": "COC1=C(N2CCOCC2)C(=O)c2ccccc2C1=O", "Category Label": "yes (1)"}
{"Molecule": "CC(C)Cn1c(N)c(C(=O)NCc2cccs2)c2nc3ccccc3nc21", "Category Label": "yes (1)"}
{"Molecule": "CCC(C)NC(=O)c1c(N)n(/N=C/c2cccs2)c2nc3ccccc3nc12 (stereo unspecified)", "Category Label": "no (0)"}
{"Molecule": "Cc1cccc2c3c(ccc12)C1=C(C(=O)C3=O)C(C)CO1 (stereo unspecified)", "Category Label": "yes (1)"}
{"Molecule": "CCCCCCCCCc1ccc(OCCOCCOCCOCCOCCOCCOCCOCCOCCO)cc1", "Category Label": "no (0)"}
{"Molecule": "COc1ccc(CN2CCCC(N3CCc4ccccc4C3)C2)c(O)c1 (stereo unspecified)", "Category Label": "no (0)"}
{"Molecule": "COC(=O)C(C(=O)OC)[C@@H](NC=O)c1ccccc1", "Category Label": "no (0)"}
{"Molecule": "O=C1CN(Cc2ccccc2)S(=O)(=O)c2ccccc21", "Category Label": "no (0)"}
{"Molecule": "NC(=O)C1CCN(C(=O)CC2C(=O)NCCN2Cc2cccc(Oc3ccccc3)c2)CC1 (stereo unspecified)", "Category Label": "no (0)"}
